Value source: patent US20250059204A1

# experimental-system: human-KAT6A (MYST domain 507-778 aa) (Homo sapiens (Human))
property-measured: pIC50
Bear in mind: pIC50 is minus log10 of a mol/L concentration; give just that figure.

Field: example entries. Status: answers known.
COc1cc2c(cc1S(=O)(=O)Nc1noc3cc(Cn4cccn4)c4c(c13)OCC4)CCCC2 [Compound 43] ... 7.92
COc1cccc(OC)c1S(=O)(=O)Nc1noc2cc(Cn3cc(C(F)(F)F)cn3)c3c(c12)OCC3 [Compound 36] ... 6.66
COc1cc(-n2cccn2)ccc1S(=O)(=O)Nc1noc2cc(Cn3cccn3)c3c(c12)OCC3 [Compound 39] ... 7.66
COc1cccc(OC)c1S(=O)(=O)Nc1noc2cc(Cn3ccnn3)c3c(c12)OCC3 [Compound 41] ... 7.60
COc1cccc(OC)c1S(=O)(=O)Nc1noc2cc(-c3ccoc3)c3c(c12)OCC3 [Compound 4] ... 7.54
CCOc1ccccc1S(=O)(=O)Nc1noc2cc(Cn3cccn3)c3c(c12)OCC3 [Compound 52] ... 7.49

Determine reported pIC50 for COc1cccc(OC)c1S(=O)(=O)Nc1noc2cc(Cn3cccn3)c3cc(C)oc3c12 [Compound 58] ; test system: human-KAT6A (MYST domain 507-778 aa) (Homo sapiens (Human)). 7.68

Give reported pIC50 for COc1cccc(OC)c1S(=O)(=O)Nc1noc2cc(-c3ccco3)c3c(c12)OCC3 [Compound 8] (human-KAT6A (MYST domain 507-778 aa) (Homo sapiens (Human))) 7.37

Specify pIC50 for COc1cccc(OC)c1S(=O)(=O)Nc1noc2cc(-c3ccc(C)s3)c3c(c12)OCC3 [Compound 12] , system human-KAT6A (MYST domain 507-778 aa) (Homo sapiens (Human)). 6.54

Report pIC50 from human-KAT6A (MYST domain 507-778 aa) (Homo sapiens (Human)) testing of COCC1Cc2c(Cn3cccn3)cc3onc(NS(=O)(=O)c4c(OC)cccc4OC)c3c2O1 (single isomer, unassigned) [Compound 61] 6.55

###

Below are molecules with their IC50 as measured on human-KAT6A (MYST domain 507-778 aa) (Homo sapiens (Human)).
Please state the figure in nM; there is no need to write the unit.

COc1ccc(C(C)(C)C)cc1S(=O)(=O)Nc1noc2cc(Cn3cccn3)c3c(c12)OCC3 ... 76

Provide measured IC50 on human-KAT6A (MYST domain 507-778 aa) (Homo sapiens (Human)) for COc1cccc(OC)c1S(=O)(=O)Nc1noc2cc(-c3ccccc3)c3c(c12)OCCC3C (centres unmarked) please. 74

Fill: IC50 (human-KAT6A (MYST domain 507-778 aa) (Homo sapiens (Human))) for this molecule "COc1cc(C(C)(C)C)ccc1S(=O)(=O)Nc1noc2cc(Cn3cccn3)c3c(c12)OCC3" 26

Look up and report measured IC50 (human-KAT6A (MYST domain 507-778 aa) (Homo sapiens (Human))) for the following molecule: "COc1cc(C2CC2)ccc1S(=O)(=O)Nc1noc2cc(Cn3cccn3)c3c(c12)OCC3" 10

Look up and report IC50, with human-KAT6A (MYST domain 507-778 aa) (Homo sapiens (Human)) as system, for "COc1cccc(OC)c1S(=O)(=O)Nc1noc2cc(Cn3cc(F)cn3)c3c(c12)OCC3" 26

Give measured IC50 for "COc1cccc(OC)c1S(=O)(=O)Nc1noc2cc(Cn3cccn3)c3c(c12)OCC3" (human-KAT6A (MYST domain 507-778 aa) (Homo sapiens (Human))). 20

System human-KAT6A (MYST domain 507-778 aa) (Homo sapiens (Human)). Read-out IC50. Item "COC(=O)c1ccc(OC)c(S(=O)(=O)Nc2noc3cc(Cn4cccn4)c4c(c23)OCC4)c1" . Report value. 26.6

Recall the reported IC50 of "O=S(=O)(Nc1noc2cc(Cn3cccn3)c3c(c12)OCC3)c1ccccc1-c1ccccc1" on human-KAT6A (MYST domain 507-778 aa) (Homo sapiens (Human)) and write it down. 29

###

# experimental-system: human-KAT6A (MYST domain 507-778 aa) (Homo sapiens (Human), UniProt Q92794)
# Sequence (Q92794 507-778): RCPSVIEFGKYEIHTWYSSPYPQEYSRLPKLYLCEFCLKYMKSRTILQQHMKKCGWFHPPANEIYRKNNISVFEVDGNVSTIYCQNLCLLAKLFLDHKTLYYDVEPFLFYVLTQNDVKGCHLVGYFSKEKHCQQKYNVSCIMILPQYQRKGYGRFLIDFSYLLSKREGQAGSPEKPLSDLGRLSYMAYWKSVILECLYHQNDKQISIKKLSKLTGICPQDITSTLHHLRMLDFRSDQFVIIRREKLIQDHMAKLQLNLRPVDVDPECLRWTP
Each item that follows carries a reported pIC50.
Reminder that pIC50 means the negative base-10 logarithm of the concentration expressed in mol/L.

Previously resolved entries follow.
COc1csc(-c2cc3onc(NS(=O)(=O)c4c(OC)cccc4OC)c3c3c2CCO3)c1 [Compound 7] ... 6.82
COc1cccc(OC)c1S(=O)(=O)Nc1noc2cc(-c3ccccc3)c3cc(C)oc3c12 [Compound 59] ... 7.46
COc1cccc(OC)c1S(=O)(=O)Nc1noc2cc(-c3ccccc3)c3c(c12)OC(C)C3 (stereo not shown) [Compound 18] ... 7.43

Next, consider the following molecule.
Tell me pIC50 of COc1cccc(OC)c1S(=O)(=O)Nc1noc2cc(Cn3cc(Cl)cn3)c3c(c12)OCC3 [Compound 35] when tested on human-KAT6A (MYST domain 507-778 aa) (Homo sapiens (Human), UniProt Q92794). 7.57
